Tested on: 786-0 renal
Assay: NCI tumour cell line growth inhibition, 48 h
Cut-off 4 µM on TGI, inclusive. At or above means condition met; below means condition not met.

Example results:
MOLECULE | QUALITATIVE LABEL
CC1=CCC[C@H]2[C@](C)(CC3=CC(=O)C(Sc4ccccc4)=CC3=O)[C@@H](C)CC[C@]12C | condition met
CCOC(=O)C(=CN1CCNC1=S)C(=O)OCC | condition met
Fc1ccc2c(c1)C1=C(CO2)C(c2ccc(Cl)cc2)NC(=S)N1 (centres undefined) | condition met
CCOC(=O)N1C(c2ccccc2)C=CC(c2ccccc2)N1C(=O)OCC (centres undefined) | condition met

Check this molecule for TGI at or above 4 µM: Cc1c(-c2nnc(-c3ccccc3)o2)c(=O)n(-c2ccccc2)n1C
condition met

Answer whether TGI of CC1CCCc2c1c1ccc3c(O)cccc3c1oc2=O (centres undefined) is greater than or equal to 4 µM.
condition met

Could you tell me if the measured TGI of CN[C@@H](C)[C@@H](O)c1ccccc1 reaches 4 µM or more?
condition met

Could you please find out whether CCCN(CCC)C1CCc2c(ccc3cc[nH]c23)C1 (centres undefined) has TGI that meets 4 µM or exceeds it?
condition met

Exam item: decide whether the reported TGI for FC(F)(F)c1cccc2c(SCCc3n[nH]c(=S)o3)ccnc12 is at least 4 µM.
condition met

I'd appreciate it if you could say whether COC12CCC(C(C(=O)c3ccccc3)=C1C(=O)c1ccccc1)C(O)C2 (centres undefined) has TGI at least equal to 4 µM.
condition met

Form field: TGI at least 4 µM? Entry: CCOc1ccc(/C=C2\NC(=S)N(/C=C3\C(=O)Oc4ccccc4C3=O)C2=O)cc1
condition met

// inclusive: TGI at least 4 µM? input: Cc1ccc(Nc2cc(C)nc(NCCCNc3ccnc4cc(Cl)ccc34)n2)cc1
condition not met

Test whether the molecule COc1cc(OC2OC(COC(=O)c3cc(O)c(O)c(O)c3)C(O)C(O)C2O)ccc1O (centres undefined) records TGI of 4 µM or higher.
condition met

Where do the numbers come from? From PubChem BioAssay (NCI).
